Measured values drawn from patent US20260217672A1 for this set.

Collected MIC values appear next to each entry.
- System: Klebsiella pneumonia ATCC 43816
- Assay name: Minimal Inhibitory Concentration (MIC) broth dilution assay
- Type: cell-based
- Measurement conditions: Klebsiella pneumoniae, ATCC43816, 20 h, read-out: MIC Klebsiella pneumoniae ATCC43816
Property measured: MIC (µg/mL)

# Molecule, Bound type, Value
records = [
    ("NCCCNCc1ccc(C(=O)Nc2ccc(S(=O)(=O)N3CCN(c4cc(C(F)(F)F)cc(OC5CC5)n4)CC3)cc2)cc1", "=", 11),
    ("CN1CC2CCN(CCc3ccc(C(=O)Nc4ccc(S(=O)(=O)N5CCN(c6cc(C(F)(F)F)cc(Cl)n6)CC5)cc4)cc3)C2C1 (stereo not drawn)", "=", 4.2),
    ("NCCc1cccc(C(=O)Nc2ccc(S(=O)(=O)N3CCN(c4cc(C(F)(F)F)cc(Cl)n4)CC3)cc2)c1", "=", 0.89),
    ("NC1CCN(CCc2ccc(C(=O)Nc3ccc(S(=O)(=O)N4CCN(c5cc(C(F)(F)F)cc(Cl)n5)CC4)cc3)cc2)C1 (stereo not drawn)", "=", 2.3),
    ("CC(=O)N1CCc2cc(S(=O)(=O)N3CCN(c4cc(Cl)cc(C(F)(F)F)c4)CC3)ccc21 [Example F-1, reference compound]", ">", 24),
    ("NCCCn1cc(C(=O)N2CCc3cc(S(=O)(=O)N4CCN(c5cc(C(F)(F)F)cc(Cl)n5)CC4)ccc32)cn1", "=", 7.5),
]
